# System: A-431
# Method Summary: Antiproliferative activity against human A431 cells after 72 hrs by MTT assay
# Assay type: functional
# Assay Context: A-431, 72 h
Below is a list of entries, each paired with its recorded GI50 value.
Express the result in µM but write the number alone.

Problem: Please give the measured GI50 for this compound: O=C1[C@@H]2[C@H](C(=O)N1[C@H]1CCCC[C@@H]1OP(=O)(Oc1ccccc1)Oc1ccccc1)[C@H]1CC[C@@H]2O1
Result: 26

Problem: // query: O=C1OC(=O)C2C3CCC(O3)C12 (stereo not given) [DEMETHYL-CANTHARIDIN]
Result: 31

Problem: // query: O=C1[C@@H]2[C@H](C(=O)N1CCCCCCOP(=O)(Oc1ccccc1)Oc1ccccc1)[C@H]1CC[C@@H]2O1
Result: 13

Problem: // query: O=C1[C@@H]2[C@H](C(=O)N1CCCCCOP(=O)(Oc1ccccc1)Oc1ccccc1)[C@H]1CC[C@@H]2O1
Result: 45

Problem: // query: O=C1[C@@H]2[C@H](C(=O)N1CCCCCCOP(=O)(OCC(Cl)(Cl)Cl)OCC(Cl)(Cl)Cl)[C@H]1CC[C@@H]2O1
Result: 12

Problem: // query: CCOP(=O)(OCC)O[C@H]1CCCC[C@@H]1N1C(=O)[C@@H]2[C@H](C1=O)[C@H]1CC[C@@H]2O1
Result: 47

Problem: // query: O=C1[C@@H]2[C@H](C(=O)N1CCCCCOP(=O)(OCC(Cl)(Cl)Cl)OCC(Cl)(Cl)Cl)[C@H]1CC[C@@H]2O1
Result: 18

Problem: // query: O=C1[C@@H]2[C@H](C(=O)N1CCCCOP(=O)(Oc1ccccc1)Oc1ccccc1)[C@H]1CC[C@@H]2O1
Result: 21

Problem: // query: CCOP(=O)(OCC)OCCN1C(=O)[C@@H]2[C@H](C1=O)[C@H]1CC[C@@H]2O1
Result: 27

====

# Test system: A2780
# Method Summary: Antiproliferative activity against human A2780 cells after 72 hrs by MTT assay
# Type: functional
# Assay Context: A2780, 72 h
Metric Name: GI50

CCOP(=O)(OCC)OCCCCCCN1C(=O)[C@@H]2[C@H](C1=O)[C@H]1CC[C@@H]2O1 : > 100 µM
O=C1[C@@H]2[C@H](C(=O)N1CCCOP(=O)(OCC(Cl)(Cl)Cl)OCC(Cl)(Cl)Cl)[C@H]1CC[C@@H]2O1 : 47 µM
O=C1[C@@H]2[C@H](C(=O)N1CCCOP(=O)(Oc1ccccc1)Oc1ccccc1)[C@H]1CC[C@@H]2O1 : > 100 µM

Next, consider the following compound.
Problem: Please give the measured GI50 for this compound: CCOP(=O)(OCC)OCCN1C(=O)[C@@H]2[C@H](C1=O)[C@H]1CC[C@@H]2O1
Result: 15 µM

====

# System: A2780
# Method Summary: Antiproliferative activity against human A2780 cells after 72 hrs by MTT assay
# Assay type: functional
# Assay Context: A2780, 72 h
Below is a list of entries, each paired with its recorded GI50 value.

O=C1[C@@H]2[C@H](C(=O)N1CCCCCCO)[C@H]1CC[C@@H]2O1 : > 100 µM

Problem: Please give the measured GI50 for this compound: O=C1[C@@H]2[C@H](C(=O)N1[C@H]1CCCC[C@@H]1OP(=O)(Oc1ccccc1)Oc1ccccc1)[C@H]1CC[C@@H]2O1
Result: 24 µM

Problem: // query: O=C1[C@@H]2[C@H](C(=O)N1CCOP(=O)(Oc1ccccc1)Oc1ccccc1)[C@H]1CC[C@@H]2O1
Result: > 100 µM

Problem: // query: O=C1[C@@H]2[C@H](C(=O)N1CCCCCCOP(=O)(OCC(Cl)(Cl)Cl)OCC(Cl)(Cl)Cl)[C@H]1CC[C@@H]2O1
Result: 7.7 µM

Hello, the source for this data is ChEMBL document CHEMBL1821633, in case you need it.
